Assay Info: Stability in human liver microsomes assessed as compound remaining at 1 uM in presence of NADPH at 37 degC after 1 hr by UHPLC-MS method
Type: ADME
Condition Info: read-out: Stability
Measured Property: remaining at 1 h, 1 µM

Entry under test: C[C@H](C(=O)NC1CCCC1)N(C(=O)Cn1nnc(-c2ccc3c(c2)OCO3)n1)C1CCCCC1 . Its remaining at 1 h, 1 µM was < 1%

====

Test System: UniProtKB Q61009
Sequence (Q61009 whole entry): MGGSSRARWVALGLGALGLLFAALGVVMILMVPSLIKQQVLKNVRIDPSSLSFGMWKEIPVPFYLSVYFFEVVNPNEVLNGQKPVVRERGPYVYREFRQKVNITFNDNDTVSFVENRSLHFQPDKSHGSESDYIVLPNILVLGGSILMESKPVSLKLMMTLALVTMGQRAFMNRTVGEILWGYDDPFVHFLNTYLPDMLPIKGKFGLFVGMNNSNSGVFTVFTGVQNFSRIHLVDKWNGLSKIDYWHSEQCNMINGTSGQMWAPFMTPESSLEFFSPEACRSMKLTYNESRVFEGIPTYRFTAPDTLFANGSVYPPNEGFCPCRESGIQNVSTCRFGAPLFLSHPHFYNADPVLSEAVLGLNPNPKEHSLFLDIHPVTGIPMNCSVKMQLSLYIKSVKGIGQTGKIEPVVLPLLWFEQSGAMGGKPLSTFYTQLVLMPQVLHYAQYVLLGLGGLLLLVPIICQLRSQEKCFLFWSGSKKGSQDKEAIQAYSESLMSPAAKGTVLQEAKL
Assay Info: Inhibition of mouse SR-BI isoform 1 expressed in CHO cells assessed as increase in binding of Alexa-488-labeled HDL particles to cells
Measured Property: EC50 (nM)
Answers are plain numbers, in nM.

Entry under test: C[C@H](C(=O)NC1CCCC1)N(C(=O)Cn1nnc(-c2ccc3c(c2)OCO3)n1)C1CCCCC1 . Its EC50 was 270

====

Test System: UniProt Q61009
Assay Info: Inhibition of mouse SR-BI isoform 1 expressed in CHO cells assessed as reduction in transfer of fluorescent lipid DiI from human HDL particles into cells by fluorescence assay
Measured Property: log10 of IC50 (log10 of the value in nM)
Base-10 log of IC50, unit nM.

See these solved cases before continuing.
- COc1cccc(-c2nnn(CC(=O)N(C3CCCCC3)C(C)C(=O)NC3CCCC3)n2)c1 (stereo not given): 2.26
- CC(C(=O)NC1CCCC1)N(C(=O)Cn1nnc(-c2ccc(F)cc2)n1)C1CCCCC1 (stereo not given): 2.11
- COc1ccc(-c2nnn(CC(=O)N(C3CCCCC3)C(C)C(=O)NC3CCCC3)n2)cc1OC (stereo not given): 1.74
- COc1ccc(-c2nc(CC(=O)N(C3CCCCC3)C(C)C(=O)NC3CCCC3)cs2)cc1OC (stereo not given): 3.80
- COc1ccc(-c2cc(CC(=O)N(C3CCCCC3)C(C)C(=O)NC3CCCC3)no2)cc1OC (stereo not given): 1.36
- CC(C(=O)NC1CCCC1)N(C(=O)Cn1nnc(-c2ccccc2)n1)C1CCCCC1 (stereo not given): 2.57
- CC(C(=O)NC1CCCC1)N(C(=O)Cn1nnc(-c2ccc3c(c2)OCO3)n1)C1CCCCC1 (stereo not given): 1.43
- CC(C(=O)NC1CCCC1)N(C(=O)Cn1nnc(-c2cccc(F)c2)n1)C1CCCCC1 (stereo not given): 2.58

Okay, here is my list. What is log10 of IC50 for each of these?
1. CC(C(=O)NC1CCCC1)N(C(=O)Cn1nnc(-c2ccc3c(c2)OCO3)n1)C1CCOCC1 (stereo not given)
2. CC(C(=O)NC1CCCC1)N(C(=O)Cn1nnc(-c2ccc(Cl)cc2)n1)C1CCCCC1 (stereo not given)
3. CC(C(=O)NC1CCCC1)N(C(=O)Cn1nnc(-c2ccc3c(c2)OC(F)(F)O3)n1)C1CCCCC1 (stereo not given)
4. COc1ccc(-c2nnn(CC(=O)N(C3CCCCC3)C(C)C(=O)N(C)C3CCCC3)n2)cc1OC (stereo not given)
5. COc1ccc(-c2nnn(CC(=O)N(C)C(C)C(=O)NC3CCCC3)n2)cc1OC (stereo not given)
6. O=C(CN(C(=O)Cn1nnc(-c2ccc3c(c2)OCO3)n1)C1CCCCC1)NC1CCCC1
7. CC(C(=O)NC1CCCC1)N(C(=O)Cn1nnc(-c2ccccc2F)n1)C1CCCCC1 (stereo not given)

Response:
[2.92, 2.23, 2.36, 3.20, 4.28, 1.41, 2.79]

====

Test System: UniProt Q61009
Assay Info: Inhibition of mouse SR-BI isoform 1 expressed in CHO cells assessed as reduction in transfer of fluorescent lipid DiI from human HDL particles into cells by fluorescence assay
Give IC50 for every item shown.
One number for each entry, in nM.

See these solved cases before continuing.
• COc1ccc(-c2nnn(CC(=O)N(C3CCCCC3)C(C)(C)C(=O)NC3CCCC3)n2)cc1OC = 19000
• COc1ccc(-c2nnn(CC(=O)N(C3CCCCC3)C(C)C(=O)NC3CC3)n2)cc1OC (centres undefined) = 420
• CC(C(=O)NC1CCCC1)N(C(=O)Cn1nnc(-c2ccc(Cl)c(Cl)c2)n1)C1CCCCC1 (centres undefined) = 180
• COc1ccc(-c2nnn(CC(=O)N(C3CCCC3)C(C)C(=O)NC3CCCC3)n2)cc1OC (centres undefined) = 110
• CC(C(=O)NC1CCCC1)N(C(=O)Cn1nnc(-c2ccccc2Cl)n1)C1CCCCC1 (centres undefined) = 3800

Turning now to a further record.
Entry under test: COc1ccc(-c2nc(CC(=O)N(C3CCCCC3)C(C)C(=O)NC3CCCC3)co2)cc1OC (centres undefined) . Its IC50 was 130

====

Test System: Scavenger receptor class B member 1 (Mus musculus, UniProt Q61009)
Sequence (Q61009 whole entry): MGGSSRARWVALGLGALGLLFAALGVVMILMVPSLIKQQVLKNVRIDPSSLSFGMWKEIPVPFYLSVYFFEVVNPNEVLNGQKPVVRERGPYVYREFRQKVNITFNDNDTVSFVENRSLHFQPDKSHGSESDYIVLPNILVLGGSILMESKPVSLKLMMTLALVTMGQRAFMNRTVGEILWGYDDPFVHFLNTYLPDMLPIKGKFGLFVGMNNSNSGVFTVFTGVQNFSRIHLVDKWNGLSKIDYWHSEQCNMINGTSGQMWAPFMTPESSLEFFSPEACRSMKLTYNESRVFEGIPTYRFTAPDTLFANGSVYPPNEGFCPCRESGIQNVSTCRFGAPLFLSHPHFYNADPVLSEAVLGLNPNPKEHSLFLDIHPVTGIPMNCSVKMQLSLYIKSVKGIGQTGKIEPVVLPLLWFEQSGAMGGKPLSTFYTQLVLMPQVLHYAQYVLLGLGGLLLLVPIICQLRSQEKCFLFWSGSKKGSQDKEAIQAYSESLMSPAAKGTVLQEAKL
Assay Info: Inhibition of mouse SR-BI isoform 1 expressed in CHO cells assessed as reduction in transfer of fluorescent lipid DiI from human HDL particles into cells by fluorescence assay
Measured Property: IC50

See these solved cases before continuing.
* COc1ccc(-c2nnn(CC(=O)N(C3CCCCC3)C(C(=O)NC3CCCC3)C(C)C)n2)cc1OC (stereo not drawn) | > 25 µM
* COc1ccc(-c2nnn(CC(=O)N(C3CCN(C)CC3)C(C)C(=O)NC3CCCC3)n2)cc1OC (stereo not drawn) | > 25 µM

Turning now to a further record.
Entry under test: COc1ccccc1-c1nnn(CC(=O)N(C2CCCCC2)C(C)C(=O)NC2CCCC2)n1 (stereo not drawn) . Its IC50 was > 25 µM
